Kindly supply the reported inhibition values for the records listed here.
TARGET_OF_ASSAY: G-protein coupled receptor 55 (Homo sapiens) (UniProt Q9Y2T6)
Sequence (Q9Y2T6 whole entry, looked up): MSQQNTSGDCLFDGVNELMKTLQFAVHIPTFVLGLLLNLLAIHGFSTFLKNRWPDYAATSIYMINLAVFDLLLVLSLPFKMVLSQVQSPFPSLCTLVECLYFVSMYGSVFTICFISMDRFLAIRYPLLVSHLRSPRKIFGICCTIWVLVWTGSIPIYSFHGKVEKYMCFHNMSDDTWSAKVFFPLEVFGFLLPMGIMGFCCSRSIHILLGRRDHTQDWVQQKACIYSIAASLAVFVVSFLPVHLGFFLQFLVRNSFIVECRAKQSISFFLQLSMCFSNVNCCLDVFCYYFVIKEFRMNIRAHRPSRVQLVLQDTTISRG
TEST_DETAILS: GPR55 antagonists blocking LPI-driven arrestin recruitment, primary screen, imaging, U2OS, beta-arrestin-GFP, LPI agonist (AID 2013);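 also: U2OS cells stably carrying GPR55 and arrestin-GFP stimulated by 5 µM LPI near EC80; imaged beta-arrestin-GFP aggregate spots per cell after agonist stimulation; plate controls were LPI-stimulated DMSO wells for no effect and DMSO wells without LPI for full effect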
CONDITION_NOTES: U2OS GPR55 beta-arrestin-GFP translocation imaging, LPI antagonism; at 10 µM; stronger effect = higher value
Hit rate of the full screen: of about 290,000 compounds, about 370 (0.13%) were called active. The full list was thinned out, with actives kept by preference. Results with a measured potency or affinity are listed apart.

- COMPOUND: "N#C/C(=C\\C=C\\c1ccccc1[N+](=O)[O-])C(=O)NCc1ccccc1"
  VALUE_OBSERVED: "11.1% (inactive)"
- COMPOUND: "CCOC(=O)C1CCCN(C(=O)C2CCC(CNS(=O)(=O)c3ccc(NC(C)=O)cc3)CC2)C1 (stereo not given)"
  VALUE_OBSERVED: "-10.7% (inactive)"
- COMPOUND: "CCOc1ccccc1NC(=O)NCc1ccco1"
  VALUE_OBSERVED: "11.3% (inactive)"
- COMPOUND: "COc1ccccc1-n1c(SCC(=O)Nc2cccc(C)c2)nc2c(c1=O)SCC2"
  VALUE_OBSERVED: "0.7% (inactive)"
- COMPOUND: "O=C(NCC(=O)N(c1ccccc1)C(C(=O)NCC1CCCO1)c1ccccc1)c1ccco1 (stereo not given)"
  VALUE_OBSERVED: "-16.3% (inactive)"
- COMPOUND: "COC(=O)c1cnc(SCC(=O)c2ccccc2)n1C"
  VALUE_OBSERVED: "2% (inactive)"
- COMPOUND: "CC1CC(C)CN(C(=O)C(C)N(C)CC(=O)Nc2ccc(Cl)cc2)C1 (stereo not given)"
  VALUE_OBSERVED: "12.3% (inactive)"
- COMPOUND: "CC(C)CCNC(=O)C1CC(=O)N(CCc2ccccc2)C1 (stereo not given)"
  VALUE_OBSERVED: "3.2% (inactive)"

Record inhibition per entry; entries follow.
1. COc1ccc(CCNC(=O)C/C(C)=N/NC(=O)c2ccc([N+](=O)[O-])cc2Cl)cc1OC
2. Cn1nc(-c2ccccn2)nc2c(=O)n(C)c(=O)nc1-2

a:
5.9% (inactive)
45.9% (inactive)

---

TARGET_OF_ASSAY: G-protein coupled receptor 55 (Homo sapiens) (UniProt Q9Y2T6)
TEST_DETAILS: GPR55 antagonists blocking LPI-driven arrestin recruitment, primary screen, imaging, U2OS, beta-arrestin-GFP, LPI agonist (AID 2013);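 also: U2OS cells stably carrying GPR55 and arrestin-GFP stimulated by 5 µM LPI near EC80; imaged beta-arrestin-GFP aggregate spots per cell after agonist stimulation; plate controls were LPI-stimulated DMSO wells for no effect and DMSO wells without LPI for full effect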
CONDITION_NOTES: U2OS GPR55 beta-arrestin-GFP translocation imaging, LPI antagonism; at 10 µM; stronger effect = higher value
The whole screen tested about 290,000 compounds, of which about 370 (0.13%) were called active. The sample as a whole holds a higher share of actives than the screen did. Potency and affinity values are given separately.
Field: inhibition. Provide a value for each of the molecules that follow.
One number for each entry, in %.

Here are 5 molecules together with their reported answers.
- MOLECULE: "COC(=O)c1[nH]c2ccccc2c1NC(=O)c1ccccc1[N+](=O)[O-]"
  VALUE_OBSERVED: 12.4
- MOLECULE: "COC(=O)C1=C(C)N(Cc2ccccc2)C(=NCc2cc(OC)c(OC)c(OC)c2)N[C@H]1c1cccc(F)c1"
  VALUE_OBSERVED: 8.9
- MOLECULE: "Cc1cc2nc(-c3ccc[nH]c3=O)n(Cc3cccc(F)c3)c2cc1C"
  VALUE_OBSERVED: 8.3
- MOLECULE: "N=c1c(C(=O)NC2CCCC2)cc2c(=O)n3ccccc3nc2n1C1CCCC1"
  VALUE_OBSERVED: 8.6
- MOLECULE: "Cc1cccn2c(=O)c3cc(C(=O)NCc4ccco4)c(=N)n(C4CCCCC4)c3nc12"
  VALUE_OBSERVED: 50

The following molecules each have a reported value; give each one's inhibition.
1. CC(=O)Nc1ccc(S(=O)(=O)NNC(=O)C2CCCCC2)cc1
2. COC(=O)C1=C(C)N(Cc2ccccc2)C(=NCCc2ccccn2)N[C@H]1c1cccc(F)c1
3. CCN1C(=S)N[C@@H](c2cccc(F)c2)C(C(=O)OC)=C1C
4. COc1ccc(OC)c(-c2csc(N(CC3CCCO3)C(=O)C3CCCCC3)n2)c1 (stereo not given)
5. CCCCNC(=O)CN1C(=O)C(CC)Oc2ccc(Cl)cc21 (stereo not given)

a:
0.1
38.8
4.1
82.9
2.3

---

TARGET_OF_ASSAY: G-protein coupled receptor 55 (Homo sapiens) (UniProt Q9Y2T6)
TEST_DETAILS: GPR55 antagonists blocking LPI-driven arrestin recruitment, primary screen, imaging, U2OS, beta-arrestin-GFP, LPI agonist (AID 2013);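 also: U2OS cells stably carrying GPR55 and arrestin-GFP stimulated by 5 µM LPI near EC80; imaged beta-arrestin-GFP aggregate spots per cell after agonist stimulation; plate controls were LPI-stimulated DMSO wells for no effect and DMSO wells without LPI for full effect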
CONDITION_NOTES: U2OS GPR55 beta-arrestin-GFP translocation imaging, LPI antagonism; at 10 µM; stronger effect = higher value
About 370 (0.13%) of roughly 290,000 compounds were called active. This excerpt belongs to a sample that is enriched for actives. Results with a measured potency or affinity are listed apart.
QUANTITY: inhibition (%)
Answers are plain numbers, in %.

- COMPOUND: "Cc1ccc(NC2=NCC(Cc3ccc(Br)cc3)S2)cc1 (configuration not stated)"
  QUANTITY: "inhibition"
  UNIT_LABEL: "%"
  VALUE_OBSERVED: 49
- COMPOUND: "C/C=C(\\C)C(=O)N1CC2(CC(c3cccc(NC(=O)COc4ccc(Cl)cc4)c3)=NO2)C[C@@H]1C(N)=O (some centres not stated)"
  QUANTITY: "inhibition"
  UNIT_LABEL: "%"
  VALUE_OBSERVED: -0.1
- COMPOUND: "COC(=O)COc1ccc(S(=O)(=O)NCc2ccco2)cc1"
  QUANTITY: "inhibition"
  UNIT_LABEL: "%"
  VALUE_OBSERVED: 10.1
- COMPOUND: "O=C(O)CNS(=O)(=O)c1ccc(-c2ccccc2)cc1"
  QUANTITY: "inhibition"
  UNIT_LABEL: "%"
  VALUE_OBSERVED: 75.2
- COMPOUND: "CC(NC(=O)CCc1nnc(CCCc2ccccc2)o1)c1ccccc1 (configuration not stated)"
  QUANTITY: "inhibition"
  UNIT_LABEL: "%"
  VALUE_OBSERVED: -2.7
- COMPOUND: "O=C(CN1CCN(C(=O)c2ccco2)CC1)Nc1ccc(F)cc1F"
  QUANTITY: "inhibition"
  UNIT_LABEL: "%"
  VALUE_OBSERVED: 10.4
- COMPOUND: "COc1ccc(NS(=O)(=O)c2ccc3nc(COc4ccc5ccccc5c4)[nH]c3c2)cc1"
  QUANTITY: "inhibition"
  UNIT_LABEL: "%"
  VALUE_OBSERVED: 20.6
- COMPOUND: "COc1ccc(N2C(=O)S[C@@H]3CS(=O)(=O)C[C@@H]32)cc1"
  QUANTITY: "inhibition"
  UNIT_LABEL: "%"
  VALUE_OBSERVED: 14.8
- COMPOUND: "N=c1c2c(-c3ccccc3)c(-c3ccccc3)n(Cc3ccco3)c2ncn1Cc1ccccc1"
  QUANTITY: "inhibition"
  UNIT_LABEL: "%"
  VALUE_OBSERVED: 70.9
- COMPOUND: "CN(C)CCN(Cc1ccccc1)c1nccc(N(C)C)c1C#N"
  QUANTITY: "inhibition"
  UNIT_LABEL: "%"
  VALUE_OBSERVED: 7.4

Please look at the items below and tell me inhibition for each one, in order.
1. O=C1/C(=C/c2ccc([N+](=O)[O-])cc2)CCc2ccccc21
2. N=c1c2c(-c3ccccc3)c(-c3ccccc3)n(Cc3ccco3)c2ncn1CCO
3. O=C(CC12CC3CC(CC(C3)C1)C2)NCc1ccco1
4. CC(=O)/C(=C\N(C)C)Sc1ccc(Cl)cc1
5. CC(C)CNC(=O)CC(c1ccccc1)c1ccccc1
6. COCCCn1c(=S)[nH]c2sc3c(c2c1=O)CCCS3
7. Cc1cc(C)cc(-c2nnc(SCC(=O)c3ccc4c(c3)OCCO4)o2)c1
8. Cc1cc(C(=O)NCC(=O)O)c(C)o1

a:
1. 6.9
2. 58.3
3. 11.3
4. 0.6
5. -4.4
6. -0.4
7. -7.3
8. 2.3

For every record below, what is its inhibition?
1. CC(C)C[C@H](NC(=O)c1[nH]cnc1C(=O)Nc1ccc(CNC(=O)OC(C)(C)C)cc1)C(=O)OCc1ccccc1
2. COc1ccccc1NC(=S)NC(NC(=O)c1ccco1)C(Cl)(Cl)Cl (configuration not stated)
3. CCN(C(=O)CC(C)C)c1nnc(Cn2nnc3ccccc32)s1

a:
1: 7; 2: 3.2; 3: 6.1

For every item below, please supply its inhibition.
1. COc1ccc(N2CCN(C(=O)NCc3ccc(C)cc3)CC2)cc1
2. CCOC(=O)N1CCC(=NNC(=O)Cn2ccc(C(F)(F)F)n2)CC1
3. COc1ccc(NS(=O)(=O)c2ccc3nc(COc4ccc(C#N)cc4)[nH]c3c2)cc1
4. C#CCOCCOCCOCCNc1nc(N2CCN(C(=O)[C@H](Cc3cc4ccccc4[nH]3)n3cc([C@@H](N)C(C)CC)nn3)CC2)nc(N2CCN(C(=O)[C@H](CCCCN)n3cc([C@@H](N)CC(C)C)nn3)CC2)n1 (some centres not stated)
5. COc1ccc(N2CCN(CC(=O)NCc3ccc(Cl)cc3)CC2)cc1
6. CCc1ccccc1S(=O)(=O)Cc1ccc(C(=O)N2CCN(c3ccccn3)CC2)o1

a:
1
-11.4
6
22.1
-5.1
-4.8

Your task in this section: give inhibition for each listed record.
1. O=C(CC12CC3CC(CC(C3)C1)C2)NC(=S)NCc1ccccc1
2. COc1ccccc1N1CCN(C(=O)NC23CC4CC(CC(C4)C2)C3)CC1
3. N=c1c2c(-c3ccccc3)c(-c3ccccc3)n(Cc3ccco3)c2ncn1Cc1ccco1

a:
[53, 6.5, 29.6]

// for each compound in input: emit inhibition
1. CCOC(=O)N1CCN(C(=O)CS(=O)Cc2nc(-c3cccc(C)c3)oc2C)CC1 (configuration not stated)
2. CC(=O)N(C1CC(C)C(C#N)(C#N)C1(C#N)C#N)N(C)C (configuration not stated)
3. O=C(CC12CC3CC(CC(C3)C1)C2)Nc1ccc(C(=O)O)cc1
4. COc1ccc(-c2oc(/N=C/N3CCCC3)c(C#N)c2-c2ccc(OC)cc2)cc1
5. C[C@H](NC(=O)c1nc[nH]c1C(=O)NCc1ccc(CNC(=O)OC(C)(C)C)cc1)C(=O)OC(C)(C)C
6. O=C(NC1CCCCC1)Sc1ccc(Cl)cc1
7. CCOc1cc(-c2noc(CCC(=O)NCC3CCCO3)n2)ccc1OC (configuration not stated)

a:
1: -4.3; 2: 7.5; 3: -2.4; 4: 14.8; 5: 18.1; 6: -6; 7: 0

Hi there! I need inhibition for each item below, if you can.
1. CN(C)c1nccc(N(Cc2ccccc2)Cc2ccccc2)c1C#N
2. O=C(c1cccc(S(=O)(=O)N2CCN(c3ccccc3)CC2)c1)N1CC=C(c2ccccc2)CC1

a:
49.1
4.3

// batch mode: one inhibition value per listed entry
1. O=C(O)CNS(=O)(=O)c1ccc2c(c1)C(=O)c1cc(S(=O)(=O)NCC(=O)O)ccc1-2
2. O=C(O)CNS(=O)(=O)c1ccc(F)cc1
3. COc1cc(/C=C(/NC(=O)c2ccccc2)C(=O)N2CCOCC2)c([N+](=O)[O-])cc1OC

a:
-7.8
0.5
13.2
